# Target System: UniProtKB Q9NZC2
# Sequence (Q9NZC2 19-174 limits assumed): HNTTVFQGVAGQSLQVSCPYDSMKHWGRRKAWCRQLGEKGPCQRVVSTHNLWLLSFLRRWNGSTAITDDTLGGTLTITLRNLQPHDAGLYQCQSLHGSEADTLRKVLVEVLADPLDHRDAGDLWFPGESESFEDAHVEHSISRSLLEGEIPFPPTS
# Assay Text: MST
# Type: binding
Metric Name: Kd (µM)
Record the value in µM, omitting the unit from your answer.

1. O=C(O)C1CC2CCCCC2N1Cc1cc(=O)n2ccccc2n1 (centres unmarked) [7G19-5] ... 4.5

Continue with the compound presented below.
Input: Would you mind telling me what Kd value was observed for CC1(C(=O)Nc2ccc3c(c2)CCN3C(=O)c2ccoc2)CCCC1 [6B10-8] ?
Output: 127

---

# Target System: UniProt:Q9NZC2
# Sequence (Q9NZC2 19-174 limits assumed): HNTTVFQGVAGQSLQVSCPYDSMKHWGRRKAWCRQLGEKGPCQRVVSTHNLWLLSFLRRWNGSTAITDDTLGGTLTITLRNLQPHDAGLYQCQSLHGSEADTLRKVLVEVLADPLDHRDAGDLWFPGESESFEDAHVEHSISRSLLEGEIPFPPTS
# Assay Text: nanoDSF thermal shift, dose-response
Metric Name: pEC50
Please express pEC50 as -log10 of the molar concentration.

Input: So what's the measured pEC50 for this one? O=C(Nc1ccc2c(c1)CCN2C(=O)c1ccoc1)C1CC2C=CC1C2 (stereo not shown)
Output: 4.21

---

# Target System: His-TREM2 (TREM2) (Homo sapiens, UniProt Q9NZC2)
# Assay Text: MST
# Format: binding
pKd: −log10 of the molar value.
Metric Name: pKd

Some compounds with known pKd results, for comparison:
1. Cn1cc(C(=O)N2C(C(=O)O)CC3CCCCC32)ccc1=O (stereo not drawn) ... < 3.52
2. CC(=O)N1CCc2cc(NC(=O)C3(C#N)CCCC3)ccc21 ... < 3.52

Turning to the following compound.
Input: GET /values?readout=pKd&item= `Cc1cccc(Cn2cccc(C(=O)NC3CCCCCC3)c2=O)c1`
Output: < 3.52
